# systemName: Tyrosine-protein kinase ZAP-70 (Homo sapiens)
# Sequence (P43403 whole entry, the tested form may be a part): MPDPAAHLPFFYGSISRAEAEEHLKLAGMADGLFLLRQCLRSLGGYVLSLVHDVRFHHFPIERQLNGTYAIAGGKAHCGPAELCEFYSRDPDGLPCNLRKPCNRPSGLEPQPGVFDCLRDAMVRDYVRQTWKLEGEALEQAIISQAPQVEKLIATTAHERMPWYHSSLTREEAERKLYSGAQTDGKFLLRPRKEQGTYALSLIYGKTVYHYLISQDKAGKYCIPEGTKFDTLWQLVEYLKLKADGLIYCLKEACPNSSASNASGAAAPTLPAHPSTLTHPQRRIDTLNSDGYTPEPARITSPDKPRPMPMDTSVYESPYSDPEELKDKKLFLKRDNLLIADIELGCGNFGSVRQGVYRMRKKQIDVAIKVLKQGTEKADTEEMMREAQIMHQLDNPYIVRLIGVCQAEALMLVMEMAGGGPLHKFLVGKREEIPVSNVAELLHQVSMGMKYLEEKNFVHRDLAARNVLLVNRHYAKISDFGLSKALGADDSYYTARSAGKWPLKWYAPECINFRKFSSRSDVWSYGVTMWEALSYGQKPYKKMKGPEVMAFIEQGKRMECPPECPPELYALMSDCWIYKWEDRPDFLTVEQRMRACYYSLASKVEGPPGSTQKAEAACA
# assayDetails: Antagonistic activity against SH2 domain of Zeta-chain (TCR) associated protein kinase, ZAP-70
# Assay type: functional
assayMetric: IC50 (nM)

# chemicalStructure, observedResult
rows = [
    ("CCCCCC(=O)N(Cc1ccc(C(F)(F)P(=O)(O)O)cc1)[C@H]1CC[C@H]2[C@@H]3CCc4cc(OCCC)ccc4[C@H]3CC[C@]12C", 1900),
    ("CCCCCC(=O)N(Cc1ccc(CP(=O)(O)O)cc1)[C@H]1CC[C@H]2[C@@H]3CCc4cc(OCCCOc5ccc6c(c5)CC[C@@H]5[C@@H]6CC[C@]6(C)[C@@H](N(Cc7ccc(CP(=O)(O)O)cc7)C(=O)CCCCC)CC[C@@H]56)ccc4[C@H]3CC[C@]12C", 320),
    ("CCCCCC(=O)N(Cc1ccc(CP(=O)(O)O)cc1)[C@H]1CC[C@H]2[C@@H]3CCc4cc(OCCC)ccc4[C@H]3CC[C@]12C", 3200),
    ("CCCCCC(=O)N(Cc1ccc(C(F)(F)P(=O)(O)O)cc1)[C@H]1CC[C@H]2[C@@H]3CCc4cc(OCCCOc5ccc6c(c5)CC[C@@H]5[C@@H]6CC[C@]6(C)[C@@H](N(Cc7ccc(C(F)(F)P(=O)(O)O)cc7)C(=O)CCCCC)CC[C@@H]56)ccc4[C@H]3CC[C@]12C", 250),
]
